# Experimental System: GCGR (Homo sapiens)
# Sequence (P47871 26-477, species assumed): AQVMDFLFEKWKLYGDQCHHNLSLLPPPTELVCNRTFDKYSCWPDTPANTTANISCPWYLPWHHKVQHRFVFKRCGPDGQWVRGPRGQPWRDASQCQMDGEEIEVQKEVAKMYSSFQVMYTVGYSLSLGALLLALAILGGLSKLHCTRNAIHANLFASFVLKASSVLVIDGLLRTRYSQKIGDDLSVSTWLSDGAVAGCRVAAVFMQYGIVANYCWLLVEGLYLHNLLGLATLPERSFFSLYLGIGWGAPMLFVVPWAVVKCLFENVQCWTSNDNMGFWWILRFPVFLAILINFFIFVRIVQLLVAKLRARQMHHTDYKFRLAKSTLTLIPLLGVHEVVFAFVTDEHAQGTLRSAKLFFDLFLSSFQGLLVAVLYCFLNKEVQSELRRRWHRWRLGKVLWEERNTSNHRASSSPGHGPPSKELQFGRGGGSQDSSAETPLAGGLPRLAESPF
# Assay Protocol: I125-glucagon binding assay (competition, GCGR membrane fractions)
# Set-up: expressed in transfected cells; host or cells: CHO-K1; dose or concentration left out as unconfirmed
# Condition Notes: read-out: percentage of inhibition (number in parenthesis in IC50 binding column)
Tick 1.0 if inhibition is 40% or greater. Tick 0.0 if inhibition is less than 40%.

CCOC(=O)CCNC(=O)c1ccc(NC(CC(C)C)c2ccc(-c3noc(-c4ccccc4)n3)cc2)cc1 (stereo not drawn)
0.0
CCOC(=O)CCNC(=O)c1ccc(NC(c2ccc(-c3noc(-c4ccc(F)cc4)n3)cc2)C(C)C)cc1 (stereo not drawn)
0.0
CCOC(=O)CCNC(=O)c1ccc(NC(c2ccc(-c3noc(-c4cccs4)n3)cc2)C(C)C)cc1 (stereo not drawn)
0.0
CCCCC(Nc1ccc(C(=O)NCCC(=O)OCC)cc1)c1ccc(-c2noc(-c3ccccc3)n2)cc1 (stereo not drawn)
0.0
CCOC(=O)CCNC(=O)c1ccc(N[C@H](c2ccc(-c3noc(C(F)(F)F)n3)cc2)C(C)CC)cc1 (stereo partly drawn)
0.0

API: the following record is the query input.
Q. Hi team, for CCOC(=O)CCNC(=O)c1ccc(NC(CC(C)C)c2ccc(-c3noc(C(C)(C)C)n3)cc2)cc1 (stereo not drawn) , is the recorded inhibition at or above 40%?
A. 1.0
